Provenance of the data: patent US20110293610A1

target: T1, B Lymphocyte Stimulator, soluble form (human) (human, UniProt Q9Y275 134-285, biotinylated with NHS-biotin where used as biotinylated B Lymphocyte Stimulator); experiment: phage ELISA
T1 construct: Coated on plastic, captured on streptavidin plates, amine-coupled to a CM5 chip or free in solution, depending on the assay; also called BLyS; immobilized B Lymphocyte Stimulator
MEASUREMENT TYPE: binding result

# BINDER, OBSERVED
records = [
    ("I025B09 (scFv, also called I0025B09) scFv: QVHLVQSGAEVKKPGSSVKVSCRASGGSFNHAISWVRQAPGRGLEWMGGILPMYGTANYAQKFQGRVTITADKLTNTVYMDLSRLRYEDTAVYYCARELGLSIVGATTGALDMWGKGTLVTVSSGGGGSGGGGSGGGGSAQSVLTQPPSVSAAPGQKVTISCSGSSSNIGNNYVSWYQQIPGTAPKLLIYENNKRPSGIPDRFSGSKSGASATLDITGLQTGDEADYYCGTWHSSQVVFGGGTKLTVLG", "binds"),
    ("I075G01 (scFv) scFv: QVQLVQSGAEVKKPGASVKVSCKTSGYTFTGYNINWVRQAPGQGLEWMGWVSPSNGDTSYAQTFQGRVTMTRDTSISTAYMELSSLKSDDTAVYYCARDHFDTLTGYFRRLDSWGQGTLVTVSSGGGGSGGGGSGGGGSALSSELTQDPEVSVALGQTVTITCQGDSLITHYASWFQQKPGQAPLLVFYSKDKRPSGIPDRFSGSYSGNTASLTITGAQAEDEADYYCNSRDSRGKNHVAFGGGTKLTVLG", "binds"),
    ("I065F08 (scFv) scFv: QVQLQQSGAEVKKPGSSVKVSCKASGDTFSSFGISWVRQVPGQGLEWMGAIIPKFDIVTYAEEFKGRVTISADKLTNTAYMEVKSLRSEDTAVYYCTREKSAAGYFDYWGKGTLVTVSSGGGGSGGGGSGGGGSDIVMTQSPSTLSASVGDRVTITCRASQGISSWLAWYQQKPGRAPKVLIYKASTLESGVPSRFSGSGSGTDFTLTISSLQPEDFATYYCQQSYSTPWTFGQGTKLEIKR", "binds"),
]
